# Tested on: HepG2
# test: cytotoxicity call (relative viability < 0.9)
# assay_setup: 10 µM
The campaign covered roughly 39,000 compounds. About 3,300 (8.5%) were called active. The entries come from a sample that favours actives as a whole.
Outcomes: true (active), false (inactive)

INSERT INTO measurements (molecule, assigned_label) VALUES
  ('CNC[C@H]1OCCCC[C@H](C)Oc2ccc(NC(=O)c3ccncc3)cc2C(=O)N([C@H](C)CO)C[C@@H]1C', 'false'),
  ('CN(C)C(=O)[C@@H]1[C@@H](CO)[C@@H]2Cn3c(ccc(C4=CCCC4)c3=O)[C@H]1N2S(=O)(=O)c1cn(C)cn1', 'false'),
  ('C[C@H](CO)N1C[C@H](C)[C@H](CN(C)Cc2ccc(-c3ccccc3)cc2)Oc2c(NC(=O)c3ccc(-c4nccs4)cc3)cccc2C1=O', 'false'),
  ('C[C@H]1CCCCO[C@H](CN(C)C(=O)Nc2ccc(C(F)(F)F)cc2)[C@@H](C)CN([C@@H](C)CO)C(=O)c2cc(NC(=O)Nc3cccc4ccccc34)ccc2O1', 'false'),
  ('C[C@H]1CN([C@@H](C)CO)C(=O)Cc2cc(NC(=O)Nc3ccc(F)cc3)ccc2O[C@@H]1CN(C)Cc1ccc(Oc2ccccc2)cc1', 'true'),
  ('Cc1ccc(S(=O)(=O)N(C)C[C@@H]2Oc3ccc(NC(=O)Cn4cnnn4)cc3CC(=O)N([C@@H](C)CO)C[C@@H]2C)cc1', 'false'),
  ('CC(C)NC(=O)Nc1ccc2c(c1)CC(=O)N([C@H](C)CO)C[C@H](C)[C@H](CN(C)Cc1ccc(Oc3ccccc3)cc1)O2', 'false');
